The reported measurements were obtained from patent US7691851B2.

Entries and their IC50 values follow.
# measured-target: MMP-13 (Homo sapiens, UniProt P45452)
# Construct: 10 μL of a 50 nM stock solution of catalytic domain of MMP-13 enzyme; purchased Invitek (Berlin) 30100812
# test-details: Assay for determining MMP-13 inhibition (fluorescent substrate)
# Format: biochemical
# condition-parameters: catalytic domain of MMP-13; compounds stated as lower than 100 nM

* Cc1c(C(=O)O)ccc2c1CC[C@@H]2NC(=O)c1cc(C(=O)NCc2ccc3c(c2)NC(=S)CO3)nc2ccnn12 | < 100 nM

As a next step, examine the molecule that follows.
Please supply the value of reported IC50 for the item Cc1c(C(=O)O)ccc2c1CC[C@@H]2NC(=O)c1cc(C(=O)NCc2ccc3c(c2)-n2cnnc2CO3)nc2ccnn12
< 100 nM
